- SYSTEM_TESTED: T1, DFNB31_2, Q9P202
- T1 sequence (Q9P202 274-371, limits assumed, looked up): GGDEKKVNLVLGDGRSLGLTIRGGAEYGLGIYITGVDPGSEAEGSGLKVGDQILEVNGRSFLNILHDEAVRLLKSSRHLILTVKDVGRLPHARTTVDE
- METHOD_SUMMARY: holdup assay
- Design: key: below the threshold = too weak to quantify, mostly under pKd 3.1 to 4
- CONDITION_LABEL: plain residues with an end cap or a label only (N-terminal biotin on a linker: ado-ado)
MEASURED_ENDPOINT: pKd

VCMGDHWFDV [PRKN, O60260] = below the threshold
GTMFLRETSL [GUCY1A2, P33402] = 4.53
DYSNLRETDI [ADRA1D, P25100] = below the threshold
ADEMICITTL [CACNA1D, Q01668] = below the threshold
